The following binders are listed with their measured kon values.
- SUBJECT_OF_TEST: T1, human GPVI-Fc fusion protein (human, UniProt Q9HCN6 21-267, limits assumed)
- T1 construct: also called human GPVI protein antigen
- T1 sequence (looked up): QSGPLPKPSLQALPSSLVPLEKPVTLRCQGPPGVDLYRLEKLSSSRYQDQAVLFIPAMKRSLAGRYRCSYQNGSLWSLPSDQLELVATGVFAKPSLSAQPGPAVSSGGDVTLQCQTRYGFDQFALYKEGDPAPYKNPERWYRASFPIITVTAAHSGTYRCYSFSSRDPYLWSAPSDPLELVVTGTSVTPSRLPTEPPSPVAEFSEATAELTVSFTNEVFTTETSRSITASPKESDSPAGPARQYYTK
- PROTOCOL_NOTES: BLI (Octet), GPVI-Fc on biosensor, 1:1 fit

BINDER: HC4 LC3 humanized Fab (Fab, V domains shown, also called VH4:VL3) VH: QVQLVESGGGVVQPGRSLRLSCAASGFSLTSYGVTWVRQSPGKGLEWVAVIWGDGSTNYHSGLRSRLTISRDNSKNTLYLEMNSLRTEDTATYYCAKPIYYDFDDDAMDYWGQGTKVTVSS VL: DIQLTQSPSTLSASVGDRVTITCKASQNVGTYVAWYQQKPGKAPKLLIYSASYRCSGVPSRFSGSGSGTEFTLTISSLQPDDFTTYYCHQYNNYPLTFGQGTKVEIKR
kon (M⁻¹ s⁻¹): 1.1e+06
//
BINDER: HC1 LC2 humanized Fab (EMA601) (Fab, V domains shown, also called EMF601; VH1:VL2) VH: QVQLQESGPGLVKPSETLSLTCTASGFSLTSYGVTWIRQPPGKGLEWIGVIWGDGSTNYHSGLRSRVTISVDTSKSQFSLKLSSVTAADTAVYYCAKPIYYDFDDDAMDYWGQGTLVTVSS VL: DIQMTQSPSSLSASVGDRVTITCKASQNVGTYVAWFQQRPGKAPKSLIYSASYRCSGVPSKFSGSGSGTDFTLTINSLQPEDFATYYCHQYNNYPLTFGQGTKVEIKR
kon (M⁻¹ s⁻¹): 628000
//
BINDER: HC2 LC3 humanized Fab (Fab, V domains shown, also called VH2:VL3) VH: EVQLVESGPGLVKPSETLSLTCTVSGFSLTSYGVTWIRQPPGKGLEWIGVIWGDGSTNYHSGLRSRVTISVDTSKNQFSLKLSSVTAADTAVYYCAKPIYYDFDDDAMDYWGQGTLVTVSS VL: DIQLTQSPSTLSASVGDRVTITCKASQNVGTYVAWYQQKPGKAPKLLIYSASYRCSGVPSRFSGSGSGTEFTLTISSLQPDDFTTYYCHQYNNYPLTFGQGTKVEIKR
kon (M⁻¹ s⁻¹): 576000
//
BINDER: HC5 LC3 humanized Fab (Fab, V domains shown, also called VH5:VL3) VH: QVQLQESGPGLVKPSETLSLTCTVSGFSLTSYGVTWIRQPPGKGLEWIGVIWGDGSTNYHSGLRSRVTISVDTSKNQFSLKLSSVTAADTAVYYCAKPIYYDFDDDAMDYWGQGTSVTVSS VL: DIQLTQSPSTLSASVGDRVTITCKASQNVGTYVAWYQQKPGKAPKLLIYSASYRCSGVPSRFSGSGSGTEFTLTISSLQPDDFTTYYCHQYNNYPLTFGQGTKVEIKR
kon (M⁻¹ s⁻¹): 686000
//
BINDER: HC5 LC4 humanized Fab (Fab, V domains shown, also called VH5:VL4) VH: QVQLQESGPGLVKPSETLSLTCTVSGFSLTSYGVTWIRQPPGKGLEWIGVIWGDGSTNYHSGLRSRVTISVDTSKNQFSLKLSSVTAADTAVYYCAKPIYYDFDDDAMDYWGQGTSVTVSS VL: DIVMTQSPATLSLSPGDRATLSCKASQNVGTYVAWYQQKPGQAPRLLIYSASYRCSGIPARFSGSGSGTDFTLTISSLQSEDFAVYYCHQYNNYPLTFGGGTKVEIKR
kon (M⁻¹ s⁻¹): 576000
